// reported solubility at 24 h per item
assay: High throughput aqueous solubility in phosphate buffer pH 6.5; format: physicochemical; details: aqueous buffer, kinetic from dmso stock; phosphate buffer pH 6.5, 1% DMSO, 24 hrs at room temperature
// units = µg/mL; emit number, no label

Below, each entry is followed by its recorded solubility at 24 h result.
molecule: Cc1cnc(-c2cc(O[C@@H](CO)CCO)cc(C(=O)N[C@H](C)c3cnc(C(F)(F)F)nc3)c2)s1 [Example 2]
assayMetric: solubility at 24 h
reported: 96.5

molecule: Cc1cnc(-c2cc(O[C@@H]3CCOC3)cc(C(=O)N[C@H](C)c3cnc(C(F)(F)F)nc3)c2)s1 [example 11 of WO2016/091776 A1, reference compound]
assayMetric: solubility at 24 h
reported: 2.9

Given item Cc1cnc(-c2cc(O[C@@H](CO)CC(=O)O)cc(C(=O)N[C@H](C)c3cnc(C(F)(F)F)nc3)c2)s1 [Example 3] , the value recorded as its solubility at 24 h is 1190
